Measured values drawn from patent US12146004B2 for this set.

Test system: Escherichia coli
Format: cell-based
Bridge positions count the residues as written; N and C are the ends. Square brackets hold non-standard residues; d marks the D form. Peptide text beside a SMILES is read from it. * marks the point of attachment. ξ: configuration not given here. dBip = N[C@H](Cc1ccc(-c2ccccc2)cc1)C(=O)O; Thr(3ξ) = CC(O)[C@H](N)C(=O)O; X1 = CC(C)CN1CCNC[C@H]1C(=O)*; Dab = NCC[C@H](N)C(=O)O; Dap = NC[C@H](N)C(=O)O
Known MIC E. coli 058 of a selection of compounds
Kindly answer with a numeric value in µg/mL, unit omitted.

>>> observed_measurement("CC(C)C[C@@H]1NC(=O)[C@@H](Cc2ccc(-c3ccccc3)cc2)NC(=O)[C@H](CCN)NC(=O)[C@@H](NC(=O)[C@H](CN)NC(=O)[C@@H](NC(=O)[C@@H]2CNCCN2CC(C)C)C(C)O)CCNC(=O)[C@H]([C@@H](C)O)NC(=O)[C@H](CCN)NC(=O)[C@H](CCN)NC1=O (stereo partly drawn) [Example 5] (X1-[Thr(3ξ)][Dap][Dab][Dab][dBip]L[Dab][Dab]T; lactam 3-C)")
1
>>> observed_measurement("CC(C)CC1CNCC(C(=O)N[C@H](C(=O)N[C@@H](CN)C(=O)N[C@H]2CCNC(=O)[C@H]([C@@H](C)O)NC(=O)[C@H](CCN)NC(=O)[C@H](CCN)NC(=O)[C@H](CC(C)C)NC(=O)[C@@H](Cc3ccc(-c4ccccc4)cc3)NC(=O)[C@H](CCN)NC2=O)C(C)O)C1 (single isomer, unassigned; isomer 1) [Example 3]")
8

Need MIC E. coli 058, item CC(C)C[C@@H]1NC(=O)[C@@H](Cc2ccccc2)NC(=O)[C@H](CCN)NC(=O)[C@@H](NC(=O)[C@H](CN)NC(=O)[C@@H](NC(=O)[C@@H]2CNCCN2CC(C)C)C(C)O)CCNC(=O)[C@H]([C@@H](C)O)NC(=O)[C@H](CCN)NC(=O)[C@H](CCN)NC1=O (stereo partly drawn) [Example C2, reference compound] (X1-[Thr(3ξ)][Dap][Dab][Dab][dF]L[Dab][Dab]T; lactam 3-C)
8

====

Tested on: Escherichia coli
Type: cell-based
measurement setup: strain 058
Known MIC E. coli 058 of a selection of molecules
Kindly answer with a numeric value in µg/mL, unit omitted.

>>> observed_measurement("CC(C)C[C@@H]1NC(=O)[C@@H](CC2CCCCC2)NC(=O)[C@H](CCN)NC(=O)[C@@H](NC(=O)[C@H](CN)NC(=O)[C@@H](NC(=O)CC(CN)Cc2ccccc2)[C@@H](C)O)CCNC(=O)[C@H]([C@@H](C)O)NC(=O)[C@H](CCN)NC(=O)[C@H](CCN)NC1=O (single isomer, unassigned; isomer 1) [Example 58]")
4
>>> observed_measurement("CC(C)C[C@@H]1NC(=O)[C@@H](CC2CCCCC2)NC(=O)[C@H](CCN)NC(=O)[C@@H](NC(=O)[C@H](CCN)NC(=O)[C@@H](NC(=O)CC(CN)Cc2ccccc2)[C@@H](C)O)CCNC(=O)[C@H]([C@@H](C)O)NC(=O)[C@H](CCN)NC(=O)[C@H](CCN)NC1=O (single isomer, unassigned; isomer 1) [Example 66]")
8

Need MIC E. coli 058, item CC(C)C[C@@H]1NC(=O)[C@@H](CC2CCCCC2)NC(=O)[C@H](CCN)NC(=O)[C@@H](NC(=O)[C@H](CN)NC(=O)[C@@H](NC(=O)CC(CN)C2CCCCC2)C(C)O)CCNC(=O)[C@H]([C@@H](C)O)NC(=O)[C@H](CCN)NC(=O)[C@H](CCN)NC1=O (single isomer, unassigned; isomer 1) [Example 42]
4

====

Test system: Pseudomonas aeruginosa
Assay type: cell-based
Numbered stars: 1 amine (or outer) side, 2 acyl side, 3 side chain; on linkers, the order of the positions; unused ones are H or OH. Bridge positions count the residues as written; N and C are the ends. Square brackets hold non-standard residues; d marks the D form. Peptide text beside a SMILES is read from it. * marks the point of attachment. ξ: configuration not given here. X11 = O=C([C@@H](Cc1ccc(-c2ccncc2)cc1)N[*:1])[*:2]; Octanoyl(6-Me) = CCC(C)CCCCC(=O)*; Thr(3ξ) = CC(O)[C@H](N)C(=O)O; Dab = NCC[C@H](N)C(=O)O
reported metric: MIC P. aeruginosa 068 (mg/L)
Kindly answer with a numeric value in mg/L, unit omitted.

>>> observed_measurement("CC(C)CC(CN)C(=O)N[C@H](C(=O)N[C@@H](CN)C(=O)N[C@H]1CCNC(=O)[C@H]([C@@H](C)O)NC(=O)[C@H](CCN)NC(=O)[C@H](CCN)NC(=O)[C@H](CC(C)C)NC(=O)[C@@H](Cc2ccc(-c3ccccc3)cc2)NC(=O)[C@H](CCN)NC1=O)C(C)O (single isomer, unassigned; isomer 1) [Example 15]")
16
>>> observed_measurement("CC(C)CC(CN)C(=O)N[C@H](C(=O)N[C@@H](CN)C(=O)N[C@H]1CCNC(=O)[C@H]([C@@H](C)O)NC(=O)[C@H](CCN)NC(=O)[C@H](CCN)NC(=O)[C@H](CC(C)C)NC(=O)[C@@H](Cc2ccc(Br)cc2)NC(=O)[C@H](CCN)NC1=O)C(C)O (single isomer, unassigned; isomer 2) [Example 14]")
8

Consider the record given below.
Need MIC P. aeruginosa 068, item CCC(C)CCCCC(=O)N[C@@H](CCN)C(=O)N[C@H](C(=O)N[C@@H](CCN)C(=O)N[C@H]1CCNC(=O)[C@H]([C@@H](C)O)NC(=O)[C@H](CCN)NC(=O)[C@H](CCN)NC(=O)[C@H](CC(C)C)NC(=O)[C@@H](Cc2ccc(-c3ccncc3)cc2)NC(=O)[C@H](CCN)NC1=O)C(C)O (stereo partly drawn) [Example 1] ({Octanoyl(6-Me)}-[Dab][Thr(3ξ)][Dab][Dab][Dab][X11]L[Dab][Dab]T; lactam 4-C)
32

====

Tested on: Klebsiella pneumoniae
Type: cell-based
Bridge positions count the residues as written; N and C are the ends. Square brackets hold non-standard residues; d marks the D form. Peptide text beside a SMILES is read from it. * marks the point of attachment. X10 = NC[C@H](OCc1ccc(Cl)cc1)C(=O)*; dCha = N[C@H](CC1CCCCC1)C(=O)O; Dab = NCC[C@H](N)C(=O)O; Dap = NC[C@H](N)C(=O)O
Known MIC K. pneumoniae 063 of a selection of compounds
Kindly answer with a numeric value in µg/mL, unit omitted.

>>> observed_measurement("CC(C)C[C@@H]1NC(=O)[C@@H](CC2CCCCC2)NC(=O)[C@H](CCN)NC(=O)[C@@H](NC(=O)[C@H](CN)NC(=O)[C@@H](NC(=O)[C@H](CN)OCc2ccc(Cl)cc2)[C@@H](C)O)CCNC(=O)[C@H]([C@@H](C)O)NC(=O)[C@H](CCN)NC(=O)[C@H](CCN)NC1=O [Example 81] (X10-T[Dap][Dab][Dab][dCha]L[Dab][Dab]T; lactam 3-C)")
16

Consider the record given below.
Need MIC K. pneumoniae 063, item CC(C)C[C@@H]1NC(=O)[C@@H](CC2CCCCC2)NC(=O)[C@H](CCN)NC(=O)[C@@H](NC(=O)[C@H](CCN)NC(=O)[C@@H](NC(=O)C(CCN)C2CCCCC2)[C@@H](C)O)CCNC(=O)[C@H]([C@@H](C)O)NC(=O)[C@H](CCN)NC(=O)[C@H](CCN)NC1=O (single isomer, unassigned; isomer 2) [Example 69]
16

====

Tested on: Escherichia coli
Type: cell-based
Bridge positions count the residues as written; N and C are the ends. Square brackets hold non-standard residues; d marks the D form. Peptide text beside a SMILES is read from it. * marks the point of attachment. dCha = N[C@H](CC1CCCCC1)C(=O)O; X19 = NCCC(C(=O)*)C1CCCCC1; Dab = NCC[C@H](N)C(=O)O; Dap = NC[C@H](N)C(=O)O
Known MIC E. coli 058 of a selection of compounds
Kindly answer with a numeric value in mg/L, unit omitted.

Example cases with answers are listed next.
>>> observed_measurement("CCCCC(CCN)C(=O)N[C@H](C(=O)N[C@@H](CN)C(=O)N[C@H]1CCNC(=O)[C@H]([C@@H](C)O)NC(=O)[C@H](CCN)NC(=O)[C@H](CCN)NC(=O)[C@H](CC(C)C)NC(=O)[C@@H](CC2CCCCC2)NC(=O)[C@H](CCN)NC1=O)[C@@H](C)O (single isomer, unassigned; isomer 2) [Example 41]")
4
>>> observed_measurement("CC(C)C[C@@H]1NC(=O)[C@@H](CC2CCCCC2)NC(=O)[C@H](CCN)NC(=O)[C@@H](NC(=O)[C@H](CN)NC(=O)[C@@H](NC(=O)C(CCN)C2CCCCC2)[C@@H](C)O)CCNC(=O)[C@H]([C@@H](C)O)NC(=O)[C@H](CCN)NC(=O)[C@H](CCN)NC1=O (stereo partly drawn) [Example 85] (X19-T[Dap][Dab][Dab][dCha]L[Dab][Dab]T; lactam 3-C)")
4

Consider the record given below.
# value lookup — system Escherichia coli, readout MIC E. coli 058, item CC(C)C[C@@H]1NC(=O)[C@@H](CC2CCCCC2)NC(=O)[C@H](CCN)NC(=O)[C@@H](NC(=O)[C@H](CCN)NC(=O)[C@@H](NC(=O)C(CCN)c2ccc(F)cc2)C(C)O)CCNC(=O)[C@H]([C@@H](C)O)NC(=O)[C@H](CCN)NC(=O)[C@H](CCN)NC1=O (single isomer, unassigned; isomer 2) [Example 54]
4
